Target: Nanoluciferase-BRD9 fusion protein (Homo sapiens (Human))
Assay: SYO1 BRD9 NanoLuc degradation assay
Assay type: cell-based
Conditions: Table 5B; SYO-1 cells expressing 3×FLAG-NLuc-BRD9, 6 hours; read-out: SYO1 BRD9-NanoLuc degradation IC50
DC50 overview

Exercise: # get_value(readout='DC50', item= COc1cc(-c2cn(C)c(=O)c3cnccc23)cc(OC)c1CN1CCC2(C1)CN(C(=O)C#Cc1ccc3c(c1)C(=O)N(C1CCC(=O)NC1=O)C3=O)C2 (stereo not drawn) )
Key: < 10 nM

Exercise: How about this molecule: COc1cc(-c2cn(C)c(=O)c3cnccc23)cc(OC)c1CN1CCC(c2nc(COc3ccc4c(c3)C(=O)N(C3CCC(=O)NC3=O)C4=O)cs2)CC1 (stereo not drawn)
Key: < 10 nM

Kindly consider the entry below.
Exercise: DC50 lookup needed for COc1cc(-c2cn(C)c(=O)cc2C)cc(OC)c1CN1CC(CN2CCC3(CC2)CN(c2ccc4c(c2)C(=O)N(C2CCC(=O)NC2=O)C4=O)C3)C1 (stereo not drawn) , thanks.
Key: < 10 nM

* * *

Measured IC50, listed per entry.
Target: BRD9 bromodomain (Homo sapiens (Human), UniProt Q9H8M2)
Sequence (Q9H8M2 133-239): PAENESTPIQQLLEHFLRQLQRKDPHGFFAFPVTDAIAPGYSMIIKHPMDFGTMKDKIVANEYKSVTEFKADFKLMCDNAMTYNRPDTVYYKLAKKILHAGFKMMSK
Assay: BRD9 bromodomain TR-FRET competition binding assay
Conditions: Table 4; competition with biotinylated ligand, 3 nM Flag-BRD9, 90 minutes
Description: Procedure: His-Flag-BRD9 (P133-K239; Swiss Prot Q9H8M2; SEQ ID NO:1 mgsshhhhhhenlyfq/gdykddddkgslevlfqg/[…] […]) was cloned, expressed, purified, and then treated with TEV protease. Cleaved His tag was removed by purification. The binding of a biotinylated small molecule ligand of BRD9 was assessed via the LANCE® TR-FRET platform (PerkinElmer), and the compounds were assayed for inhibitory activity against this interaction. […]

Sample records with IC50:
Exercise: Endpoint output: IC50 of COc1cc(-c2cn(C)c(=O)c3cnccc23)cc(OC)c1CN1CCC12CN(C(=O)CCOCCOc1cccc3c1C(=O)N(C1CCC(=O)NC1=O)C3=O)C2 (stereo not drawn) . Value?
Key: 10 to 100 nM

Exercise: Now consider COc1cc(-c2cn(C)c(=O)c3cnccc23)cc(OC)c1CN1CC(C(=O)N(C)CCCCCCCCNc2cccc3c2C(=O)N(C2CCC(=O)NC2=O)C3=O)C1 (stereo not drawn) and answer again.
Key: < 10 nM

Next compound, IC50 to be filled in.
Exercise: Quick check: IC50 of COc1cc(-c2cn(C)c(=O)c3cnccc23)cc(OC)c1CN1CCC12CCN(C(=O)CCOCCOc1cccc3c1C(=O)N(C1CCC(=O)NC1=O)C3=O)C2 (stereo not drawn) ?
Key: 10 to 100 nM

* * *

Biological target: Nanoluciferase-BRD9 fusion protein (Homo sapiens (Human), UniProt Q9H8M2)
Sequence (Q9H8M2 whole entry, the tested form may be a part): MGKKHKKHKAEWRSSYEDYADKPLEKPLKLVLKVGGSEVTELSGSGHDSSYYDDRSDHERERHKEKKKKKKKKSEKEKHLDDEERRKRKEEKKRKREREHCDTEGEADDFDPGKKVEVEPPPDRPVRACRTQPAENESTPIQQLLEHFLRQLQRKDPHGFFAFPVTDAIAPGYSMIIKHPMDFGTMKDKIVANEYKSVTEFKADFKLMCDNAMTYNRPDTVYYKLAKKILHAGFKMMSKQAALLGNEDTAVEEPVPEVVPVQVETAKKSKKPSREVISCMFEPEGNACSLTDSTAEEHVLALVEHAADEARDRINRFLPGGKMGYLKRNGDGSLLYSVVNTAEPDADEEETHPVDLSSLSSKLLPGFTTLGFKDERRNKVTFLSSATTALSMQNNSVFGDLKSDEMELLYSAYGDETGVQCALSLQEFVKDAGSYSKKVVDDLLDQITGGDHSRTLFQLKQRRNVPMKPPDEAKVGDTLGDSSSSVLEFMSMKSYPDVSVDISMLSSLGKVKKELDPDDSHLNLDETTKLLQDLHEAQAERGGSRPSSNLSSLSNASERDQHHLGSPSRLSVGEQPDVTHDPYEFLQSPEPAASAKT
Experiment: SYO1 BRD9 NanoLuc degradation assay
Type: cell-based
Conditions: Table 5B; SYO-1 cells expressing 3×FLAG-NLuc-BRD9, 6 hours; read-out: SYO1 BRD9-NanoLuc degradation IC50
quantity: DC50

Known DC50 results, listed for orientation:
Exercise: Data request, read-out DC50, for COc1cc(-c2cn(C)c(=O)c3cnccc23)cc(OC)c1CN(C)CCCCNC1CCC12CN(c1ccc3c(c1)C(=O)N(C1CCC(=O)NC1=O)C3=O)C2 (stereo not shown)
Key: 0.01 to 0.1 µM

Exercise: Also COc1cc(-c2cc(C)c(=O)n(C)c2C)cc(OC)c1CN1CC(CN2CCC3(CC2)CN(c2ccc4c(c2)C(=O)N(C2CCC(=O)NC2=O)C4=O)C3)C1 (stereo not shown) , if possible.
Key: < 0.01 µM

Exercise: Ok, now COc1cc(-c2cn(C)c(=O)c3cnccc23)cc(OC)c1CN(C)CCn1cc(COC2CCN(c3ccc4c(c3)C(=O)N(C3CCC(=O)NC3=O)C4=O)CC2)nn1 (stereo not shown)
Key: 0.01 to 0.1 µM

Attention now shifts to the item below.
Exercise: What value of measured DC50 is listed for COc1cc(-c2cn(C)c(=O)c3cnccc23)cc(OC)c1CN(C)CCCCCCCCNc1cccc2c1CN(C1CCC(=O)NC1=O)C2=O (stereo not shown) ?
Key: < 0.01 µM

* * *

Target: Nanoluciferase-BRD9 fusion protein (Homo sapiens (Human), UniProt Q9H8M2)
Test: SYO1 BRD9 NanoLuc degradation assay
Type: cell-based
Conditions: Table 5C; SYO-1 cells expressing 3×FLAG-NLuc-BRD9, 6 hours; read-out: SYO1 BRD9-NanoLuc degradation IC50
Documented DC50 across a set of molecules

The following molecules have reported results that may help.
Exercise: Recorded DC50 for COc1cc(-c2cn(C)c(=O)c3cnccc23)cc(OC)c1CN1CCC2(CC1)CN(c1ccc3c(c1)C(=O)N(C1CC(=O)NC1=O)C3)C2 (stereo not drawn) , please?
Key: < 10 nM

Exercise: Queued: C=CCn1cc(-c2cc(OC)c(CN3CCC4(C3)CN(c3ccc5c(c3)C(=O)N(C3CCC(=O)NC3=O)C5)C4)c(OC)c2)cc(C(F)F)c1=O (stereo not drawn)
Key: < 10 nM

Exercise: Do the same for Cn1ccc2oc(C(=O)NC3CCN(c4ccc5c(c4)C(=O)N(C4CCC(=O)NC4=O)C5)CC3)cc2c1=O (stereo not drawn) please
Key: 10 to 100 nM

Exercise: What do you get for COc1cc(-c2cn(C)c(=O)c3cn(C)nc23)cc(OC)c1CN1CCC2(CC1)CN(c1ccc3c(c1)CN(C1CCC(=O)NC1=O)C3=O)C2 (stereo not drawn) ?
Key: < 10 nM

Exercise: Try this molecule next: COc1cc(-c2cn(C)c(=O)c3[nH]c(C)cc23)cc(OC)c1CN1CCC2(CC1)CN(c1ccc3c(c1)C(=O)N(C1CCC(=O)NC1=O)C3)C2 (stereo not drawn)
Key: < 10 nM

---
Exercise: Would you kindly share the measured DC50 for COc1cc(-c2cc(C(F)F)c(=O)n(C)c2)cc(OC)c1C1CN(c2ccc3c(c2)C(=O)N(C2CCC(=O)NC2=O)C3)C1 (stereo not drawn) ?
Key: < 10 nM

* * *

Parameter IC50: see the listing below.
Molecular target: BRD9 bromodomain (Homo sapiens (Human))
Assay: BRD9 bromodomain TR-FRET competition binding assay
Conditions: Table 4; competition with biotinylated ligand, 3 nM Flag-BRD9, 90 minutes

Example molecules with recorded IC50:
Exercise: Item COc1cc(-c2cn(C)c(=O)c3cnccc23)cc(OC)c1CN(C)C12CC(NC(=O)CCCCCOc3cccc4c3C(=O)N(C3CCC(=O)NC3=O)C4=O)(C1)C2 (stereo not drawn) has what recorded IC50?
Key: < 10 nM

Exercise: Further, for COc1cc(-c2cn(C)c(=O)c3cnccc23)cc(OC)c1CN(C)C12CC(C(=O)NCCOCCOCCNc3cccc4c3C(=O)N(C3CCC(=O)NC3=O)C4=O)(C1)C2 (stereo not drawn) ?
Key: < 10 nM

Exercise: Entry COc1cc(-c2cn(C)c(=O)c3cnccc23)cc(OC)c1CN1CC[C@H]1C(=O)NCCN(C)CCNc1cccc2c1C(=O)N(C1CCC(=O)NC1=O)C2=O (stereo partly drawn) please
Key: < 10 nM

---
Exercise: Fill in: IC50 of COc1cc(-c2cn(C)c(=O)c3cnccc23)cc(OC)c1CN1CC[C@H]1C(=O)NCCN(C)CCNC(=O)COc1ccc2c(c1)C(=O)N(C1CCC(=O)NC1=O)C2=O (stereo partly drawn) is ___
Key: 10 to 100 nM

Exercise: Now give it for COc1cc(-c2cn(C)c(=O)c3cnccc23)cc(OC)c1CN1CC(C(=O)NCCCCCNc2cccc3c2C(=O)N(C2CCC(=O)NC2=O)C3=O)C1 (stereo not drawn) too.
Key: < 10 nM

Exercise: Queued: COc1cc(-c2cn(C)c(=O)c3cnccc23)cc(OC)c1CN1CCC12CCN(C(=O)CCOCCOc1ccc3c(c1)C(=O)N(C1CCC(=O)NC1=O)C3=O)C2 (stereo not drawn)
Key: < 10 nM

Exercise: Also check COc1cc(-c2cn(C)c(=O)c3cnccc23)cc(OC)c1CN(C)C12CC(C(=O)NCCCCCNc3cccc4c3C(=O)N(C3CCC(=O)NC3=O)C4=O)(C1)C2 (stereo not drawn)
Key: 10 to 100 nM

* * *

List of DC50 values.
Target: Nanoluciferase-BRD9 fusion protein (Homo sapiens (Human), UniProt Q9H8M2)
Assay: SYO1 BRD9 NanoLuc degradation assay
Format: cell-based
Details: Table 5B; SYO-1 cells expressing 3×FLAG-NLuc-BRD9, 6 hours; read-out: SYO1 BRD9-NanoLuc degradation IC50

Exercise: Form field: reported DC50 of COc1cc(-c2cn(C)c(=O)c3cnccc23)cc(OC)c1CN1CCC2C(C1)CN2CC#Cc1ccc2c(c1)C(=O)N(C1CCC(=O)NC1=O)C2=O (stereo not drawn)
Key: < 10 nM

Exercise: Record: COc1cc(-c2cc(C)c(=O)n(C)c2)cc(OC)c1CN1CCC2(CC1)CN(c1ccc3c(c1)C(=O)N(C1CCC(=O)NC1=O)C3=O)C2 (stereo not drawn)
Key: < 10 nM

Exercise: Also COc1cc(-c2cn(C)c(=O)c3cnccc23)cc(OC)c1CN(C)C(=O)CCCCN1CC2(C1)CN(c1ccc3c(c1)C(=O)N(C1CCC(=O)NC1=O)C3=O)C2 (stereo not drawn) , if possible.
Key: < 10 nM

Exercise: Please do the same for COc1cc(-c2cn(C)c(=O)c3cnccc23)cc(OC)c1CN(C)CCCn1cc(CCOc2ccc3c(c2)C(=O)N(C2CCC(=O)NC2=O)C3=O)nn1 (stereo not drawn) as well.
Key: 100 to 1000 nM

Exercise: Thanks! And COc1cc(-c2cn(C)c(=O)c3cnccc23)cc(OC)c1CN1CC2(CN(CCCC#Cc3ccc4c(c3)C(=O)N(C3CCC(=O)NC3=O)C4=O)C2)C1 (stereo not drawn) ?
Key: < 10 nM

Exercise: Item: COc1cc(-c2cn(C)c(=O)c3cnccc23)cc(OC)c1CN1CCC2(CC1)CCN(C(=O)C#Cc1ccc3c(c1)C(=O)N(C1CCC(=O)NC1=O)C3=O)C2 (stereo not drawn)
Key: < 10 nM

The reported measurements were obtained from patent US11414416B1.
